# System: MDA-MB-231
# experiment.description: Antiproliferative activity against human MDA-MB-231 cells assessed as inhibition of cell growth measured after 72 hrs by MTT assay
# Format: functional, cell-based
# condition.parameters: MDA-MB-231, 72 h
Strictly below 6 µM in IC50: t. Otherwise: f.

compound: CC(C)(C)c1cc2c(O)c(c1)Cc1cc(C(C)(C)C)cc(c1OCCCC(=O)NCCCCCO)Cc1cc(C(C)(C)C)cc(c1O)Cc1cc(C(C)(C)C)cc(c1OCCCC(=O)NCCCCCO)C2
assigned.class: f

compound: CC(C)(C)c1cc2c(O)c(c1)Cc1cc(C(C)(C)C)cc(c1OCCCC(=O)NCCO)Cc1cc(C(C)(C)C)cc(c1O)Cc1cc(C(C)(C)C)cc(c1OCCCC(=O)NCCO)C2
assigned.class: f

compound: CCC(Oc1c2cc(C(C)(C)C)cc1Cc1cc(C(C)(C)C)cc(c1O)Cc1cc(C(C)(C)C)cc(c1OC(CC)C(=O)NCCCO)Cc1cc(C(C)(C)C)cc(c1O)C2)C(=O)NCCCO (stereo unspecified)
assigned.class: t

// query Check if IC50 falls below 6 µM for CC(Oc1c2cc(C(C)(C)C)cc1Cc1cc(C(C)(C)C)cc(c1O)Cc1cc(C(C)(C)C)cc(c1OC(C)C(=O)NCCCO)Cc1cc(C(C)(C)C)cc(c1O)C2)C(=O)NCCCO (stereo unspecified) .
// result t

// query Check if IC50 falls below 6 µM for CC(C)(C)c1cc2c(O)c(c1)Cc1cc(C(C)(C)C)cc(c1OCCCC(=O)N(CCO)CCO)Cc1cc(C(C)(C)C)cc(c1O)Cc1cc(C(C)(C)C)cc(c1OCCCC(=O)N(CCO)CCO)C2 .
// result t

// query Check if IC50 falls below 6 µM for CCC(Oc1c2cc(C(C)(C)C)cc1Cc1cc(C(C)(C)C)cc(c1O)Cc1cc(C(C)(C)C)cc(c1OC(CC)C(=O)NCCO)Cc1cc(C(C)(C)C)cc(c1O)C2)C(=O)NCCO (stereo unspecified) .
// result t
